- method.description: reversers of MRP drug resistance, dose response, cell-based (AID 741)
- recorded.conditions: MRP-overexpressing cells, viability with/without cytotoxic drug; stronger effect = higher value
Records with an inconclusive call do not appear. Active and inactive are the calls of the source. Cut-off read from the data, not from the text of the source: active = toxicity enhancement factor above about 0.054; inconclusive = between about 0.00067 and that limit; inactive = weaker than that.
test.readout: toxicity enhancement factor

GET /value?item= "CSc1cccc(NC(=O)C2CCN(S(C)(=O)=O)CC2)c1" &field=toxicity enhancement factor returns -0.0028 (inactive)

Sample "CCOC(=O)c1sc(NC(=O)CSc2nnc(-c3ccco3)n2CC)c(C(=O)OCC)c1C" ; toxicity enhancement factor observed: 0.364 (active)

Summary for this compound, "Cc1ccc(Cn2c(N3CCCCCC3)nc3c2c(=O)[nH]c(=O)n3C)cc1" : toxicity enhancement factor is -0.0097 (inactive)

Input O=C1CCCC2=C1C(c1cccs1)n1nc(SCc3ccccc3F)nc1N2 (stereo unspecified) . Output toxicity enhancement factor: 0.0631 (active)

Record summary for "CCn1c(N)c(C(=O)N2CCOCC2)sc1=S" : reported toxicity enhancement factor = -0.0052 (inactive)

What the record says about CC1=NN(C(N)=S)C(=O)C1N=Nc1ccccc1C (stereo unspecified) : toxicity enhancement factor is -0.0057 (inactive)

The value of toxicity enhancement factor measured for the compound CC(C(=O)O)c1ccc(-c2ccccc2)c(F)c1 (stereo unspecified) turned out to be -0.0042 (inactive)

Entry "COc1cc(/C=C/C(=O)CC(=O)/C=C/c2ccc(O)c(OC)c2)ccc1O" ; toxicity enhancement factor = -0.0391 (inactive)

// toxicity enhancement factor value for "CCCCC1C(=O)N(c2ccccc2)N(c2ccccc2)C1=O" : -0.0047 (inactive)

Please fill in: toxicity enhancement factor reported for CC(Cc1ccc(O)c(O)c1)C(C)Cc1ccc(O)c(O)c1 (stereo unspecified) = -0.009 (inactive)

The compound identified as Cc1ccc(N2C(N)=C(C#N)C(c3cccnc3)C3=C2CCCC3=O)cc1 (stereo unspecified) registered its toxicity enhancement factor at 0.0726 (active)

----------
- method.description: reversers of MRP drug resistance, dose response, cell-based (AID 741)
- recorded.conditions: MRP-overexpressing cells, viability with/without cytotoxic drug; stronger effect = higher value
Results filed as inconclusive are left out.
test.readout: toxicity enhancement factor
Form field (numeric): enter value without unit.

// sample Cn1c(=O)c2c(nc(NC3CCCCC3)n2CC(O)COc2ccccc2)n(C)c1=O (stereo unspecified) , its toxicity enhancement factor was -0.0085

Reported toxicity enhancement factor for "Clc1cnc(N/N=C/c2cccs2)c(Cl)c1" was -0.0069

Entry CC1(C)CC(=O)C2=C(C1)N(c1ccccc1)C(N)=C(C#N)C2c1ccccc1 (stereo unspecified) , toxicity enhancement factor reported as 0.108

Lab note: measured toxicity enhancement factor of "O=C(O)Cc1ccc(-c2ccccc2)cc1" was -0.0033

Documented toxicity enhancement factor of "Cc1ccc(Cl)c(Nc2ccccc2C(=O)O)c1Cl" : -0.0098

Field toxicity enhancement factor (entry "O=C(Cc1cccs1)N1CCC(c2nc3c(nnn3Cc3ccccc3Cl)c(=O)[nH]2)CC1" ) reads -0.0052

----------
- method.description: reversers of MRP drug resistance, dose response, cell-based (AID 741)
- recorded.conditions: MRP-overexpressing cells, viability with/without cytotoxic drug; measured here: viability series, compound alone, at 10 µM, stronger effect = lower value
Inconclusive results are not listed.
Answer each item with its documented viability.
The answer is to be given in %; state only the numeric part.

The value of viability measured for the compound CC(C)Cc1ccc(C(C)C(=O)O)cc1 (stereo unspecified) turned out to be 93.7

The recorded viability for entry O=C1CCCC2=C1C(c1cccs1)n1nc(SCc3ccccc3F)nc1N2 (stereo unspecified) equals 69.6

COc1ccc(NC(=O)C2C3C=CC(C3)C2C(=O)NCc2ccccn2)c(OC)c1 (stereo unspecified) has a reported viability of 88.7

viability in this record for CC(Cc1ccc(O)c(O)c1)C(C)Cc1ccc(O)c(O)c1 (stereo unspecified) : 86.2

The compound "CC(C)CCn1c(=O)c2ccccc2n2c(CN(C)Cc3ccccc3)nnc12" showed viability equal to 82.3

Just so you know, measured viability for COC(=O)Nc1ccc(S(=O)(=O)N2c3ccccc3CCC2C)cc1 (stereo unspecified) came out at 20.1

Lab note: "CCOC(=O)/C(C#N)=C/c1cc(C)n(-c2ccc(C)cc2)c1C" gave viability of 63.7

What the record says about "Cc1cccc(OCc2nnc(SCC(=O)c3ccccc3)o2)c1" : viability is 97.4

Entry COCC(C)OC(=O)C(C#N)c1nc2ccccc2nc1N1CCN(Cc2ccccc2)CC1 (stereo unspecified) , viability reported as 89.3

Record O=C(c1ccccc1)c1ccc2n1CCC2C(=O)O (stereo unspecified) . Reported viability: 106

viability reading for "c1ccc(-c2nc(N3CCOCC3)c3ccccc3n2)nc1" : 87

----------
- method.description: reversers of MRP drug resistance, dose response, cell-based (AID 741)
- recorded.conditions: MRP-overexpressing cells, viability with/without cytotoxic drug; stronger effect = higher value
Records with an inconclusive call do not appear.
test.readout: toxicity enhancement factor
# output: bare number, no unit

// toxicity enhancement factor lookup, compound = "Cc1ccc(-c2nc3ncccn3c2NC2CCCCC2)o1" , result: 0.0632

get_value(item= "COc1ccccc1Nc1nc(N)nc(CN2CCOCC2)n1" , readout=toxicity enhancement factor) returns -0.0058

According to the records, this compound "c1ccc2sc(N3CN(CCN4CCOCC4)CN(c4nc5ccccc5s4)C3)nc2c1" displays toxicity enhancement factor of -0.0158

Measured toxicity enhancement factor, "CCCCSc1nnc2n(CCc3ccccc3)c(=O)c3c4c(sc3n12)COC(C)(C)C4" : 0.189

----------
- method.description: reversers of MRP drug resistance, dose response, cell-based (AID 741)
- recorded.conditions: MRP-overexpressing cells, viability with/without cytotoxic drug
Inconclusive results are not listed. Active and inactive are the calls of the source. Rule as the data show it: active = toxicity enhancement factor above about 0.054; inconclusive = between about 0.00067 and that limit; inactive = weaker than that.
Tick one outcome: true (1) = active, false (0) = inactive

Called result for "COc1ccc2cc([C@H](C)C(=O)O)ccc2c1"
false (0)

Hey, what did the test say about "Cc1cccc(OCc2nnc(SCC(=O)c3ccccc3)o2)c1" ?
false (0)

Identify the outcome logged in this assay for the molecule shown: "CCOC(=O)Nc1ccc(S(=O)(=O)Nc2nccc(C)n2)cc1"
false (0)

Just curious, what result did "CN1C(C(=O)Nc2ccccn2)=C(O)c2ccccc2S1(=O)=O" get here?
false (0)

Please let me know the test result on file for "CCc1nc(SCC(=O)Nc2c(C)nn(C)c2C)c2cnn(-c3ccccc3)c2n1" .
false (0)

Would you mind telling me which call this test gave "Cn1ccnc1-c1nc2ccccc2[nH]c1=O" ?
false (0)

// param item: "O=C(NCc1ccccn1)c1cn(CCc2ccccc2)nn1" ; yields the recorded call
false (0)

Each molecule tested received a call. Report the one for "O=C(CSc1nnc(CN2CCOCC2)n1-c1ccc(Cl)cc1)Nc1cc(Cl)ccc1O" .
true (1)

Assay result, entry "N#Cc1ccc(CSc2nnc(-c3cccs3)n2-c2ccccc2)cc1" — outcome?
false (0)

Tell me the assay call for "Cc1oncc1C(=O)Nc1ccc(C(F)(F)F)cc1" please.
false (0)

Lab log entry: "c1ccc(-c2nc(N3CCOCC3)c3ccccc3n2)nc1" — outcome as called in the assay?
false (0)

Dear all, I need the recorded test outcome for "CC(C)(C)C(=O)[C@@H]1[C@@H]2C(=O)N(C3CCCCC3)C(=O)[C@@H]2[C@H]2c3ccccc3C=CN12" , thank you.
true (1)

----------
- method.description: reversers of MRP drug resistance, dose response, cell-based (AID 741)
- recorded.conditions: MRP-overexpressing cells, viability with/without cytotoxic drug; measured here: slope difference tox minus reversal, stronger effect = higher value
Results filed as inconclusive are left out.
test.readout: slope difference
Number only, please.

The molecule "Clc1cnc(N/N=C/c2cccs2)c(Cl)c1" showed slope difference equal to -0.68

The molecule listed as "CN1C(C(=O)Nc2ccccn2)=C(O)c2ccccc2S1(=O)=O" has a reported slope difference of -0.409

Entry "Cc1oncc1C(=O)Nc1ccc(C(F)(F)F)cc1" ; slope difference = -0.34

Sample COCC(C)OC(=O)C(C#N)c1nc2ccccc2nc1N1CCN(Cc2ccccc2)CC1 (stereo unspecified) ; slope difference observed: -0.109

Noted for O=C(c1ccccc1)c1ccc2n1CCC2C(=O)O (stereo unspecified) : its slope difference reads -0.0977

For reference, reported slope difference for COC(=O)C(C)Sc1nnc2n(-c3cccc(C)c3)c(=O)c3c4c(sc3n12)CCCC4 (stereo unspecified) stands at 2.9

----------
- method.description: reversers of MRP drug resistance, dose response, cell-based (AID 741)
- recorded.conditions: MRP-overexpressing cells, viability with/without cytotoxic drug; measured here: viability series, compound alone, at 10 µM, stronger effect = lower value
Results filed as inconclusive are left out.
test.readout: viability (%)
// return numeric value only (unit: %, not printed)

What the record says about "CCOc1ccccc1Nc1nc(N)nc(CN(C)C2CCCCC2)n1" : viability is 92.2

So for CC(C(=O)O)c1cccc(C(=O)c2ccccc2)c1 (configuration not stated) , the logged viability turned out to be 92.4

viability reading for "COC(=O)c1ccccc1NC(=O)c1cccs1" : 87.5

The value of viability measured for the compound "Cc1cc(C)cc(OCc2nnc(SCC(=O)c3ccc(Br)cc3)o2)c1" turned out to be 92.3

viability reported for this compound "Cn1ccnc1-c1nc2ccccc2[nH]c1=O" : 92.3

The compound listed as "Cc1ccc(Cn2c(N3CCCCCC3)nc3c2c(=O)[nH]c(=O)n3C)cc1" has a reported viability of 88.2

"Cc1ccc(Cl)c(Nc2ccccc2C(=O)O)c1Cl" yielded viability of 92.5
